# key: entry, value: TGI
Test system: HCT-15 colon
ASSAY_NOTES: NCI tumour cell line growth inhibition, 48 h

// solved cases for TGI follow
COMPOUND | TGI
Cc1nn(C(=O)CC(=O)Nc2ccccc2Cl)c(C)c1N=Nc1ccccc1Cl | > 100 µM
C[N+](C)(C)CC(=O)N/N=C(\C(=O)Nc1ccc(Cl)cc1)C1C(=O)N(c2ccccc2)N=C1N (stereo not given) | > 100 µM
COc1cccc2c(NNc3ccc(Cl)cc3)c3ccc([N+](=O)[O-])cc3nc12 | 27.3 µM
COc1ccc2c(c1)CCC1C2CCC2(C)C1CC[C@@]2(O)CNC(=O)/C=C/c1ccc(O)c(O)c1 (stereo not given in full) | 4.99 µM
CCOC(=O)C1(C/C=C\CBr)CCCCCCC1=O (stereo not given) | > 100 µM
O=C(CN1C(=O)c2ccccc2C1=O)NC1(C(=O)O)CCCC1 | > 100 µM
C[N+](C)([O-])Cc1cccc(NC(=O)c2ccc(C(=O)Nc3cccc(C[N+](C)(C)[O-])c3)cc2)c1 | > 100 µM
OB1OCc2ccccc21 | > 100 µM

*Q* Looking for the measured TGI of `COC[C@H](Cc1ccccc1)N=Cc1ccccc1` , can you help?
*A* > 100 µM

*Q* Looking for the measured TGI of `C/C(=C1/N=C(c2ccccc2)OC1=O)c1cccs1` , can you help?
*A* > 100 µM

*Q* Looking for the measured TGI of CC1(C)CC(=O)C2=C(C1)OC1=C(CC(C)(C)CC1=O)C2c1ccccc1Cl (stereo not given) , can you help?
*A* > 100 µM

*Q* Looking for the measured TGI of O=C1NC(N2CCCC(CO)C2)=N/C1=C\c1ccc(O)cc1 (stereo not given) , can you help?
*A* > 100 µM

*Q* Looking for the measured TGI of `COc1cc(OC)cc(N(C)Cc2cnc3nc(N)nc(N)c3c2C)c1` , can you help?
*A* > 100 µM

*Q* Looking for the measured TGI of `Cc1ccc(S(=O)(=O)c2ccccn2)cc1` , can you help?
*A* > 100 µM

*Q* Looking for the measured TGI of COc1ccccc1C1C(Cl)C(=O)N1NC(=O)Cc1ccccc1 (stereo not given) , can you help?
*A* > 100 µM

*Q* Looking for the measured TGI of `CC(C)NC(=O)OCc1c(COC(=O)NC(C)C)c(-c2ccc[n+](COC(=O)C3CCCCC3)c2)n2c1CCC2` , can you help?
*A* > 100 µM

*Q* Looking for the measured TGI of `O=c1n(CCO)nc2n1CCCN2` , can you help?
*A* > 100 µM

*Q* Looking for the measured TGI of `N#Cc1ccccc1C#C/C=C\C#Cc1cnccn1` , can you help?
*A* > 61 µM

*Q* Looking for the measured TGI of `O=C(CSCC(=O)N/N=C\c1cc(Br)cc(Br)c1O)N/N=C\c1cc(Br)cc(Br)c1O` , can you help?
*A* > 100 µM

*Q* Looking for the measured TGI of `COc1ccc(/C(C)=C(\c2ccc(Cl)cc2)c2ccc(OCCN3CCCCC3)cc2)cc1F` , can you help?
*A* 3.37 µM

*Q* Looking for the measured TGI of C=C(Cl)C(Cl)(CBr)CCC(Cl)C(C)C (stereo not given) , can you help?
*A* 22.1 µM

*Q* Looking for the measured TGI of `N#Cc1ccc(/C=C2\Cc3ccccc3C2=O)cc1` , can you help?
*A* > 100 µM
